Where these numbers come from: ChEMBL document CHEMBL3817826

tested on: H9c2; assay: Drug uptake in rat H9c2 cells at 5 uM incubated for 24 hrs by fluorimetrical analysis; format: ADME, cell-based; details: h9c2, 24 h
OBSERVABLE: Drug uptake

| COMPOUND | Drug uptake |
| --- | --- |
| COc1cccc2c1C(=O)c1c(O)c3c(c(O)c1C2=O)C[C@@](O)(C(=O)CO)C[C@@H]3O[C@H]1C[C@H](N)[C@H](O)[C@H](C)O1.Cl [DOXORUBICIN HYDROCHLORIDE] | Active |
| COc1cccc2c1C(=O)c1c(O)c3c(c(O)c1C2=O)C[C@@](O)(C(=O)COC(=O)c1ccc(C(N)=S)cc1)C[C@@H]3O[C@H]1C[C@H](N)[C@H](O)[C@H](C)O1.Cl | Active |
| C=CCSSCCC(=O)OCC(=O)[C@]1(O)Cc2c(O)c3c(c(O)c2[C@@H](O[C@H]2C[C@H](N)[C@H](O)[C@H](C)O2)C1)C(=O)c1c(OC)cccc1C3=O.Cl | Active |
| COc1cccc2c1C(=O)c1c(O)c3c(c(O)c1C2=O)C[C@@](O)(C(=O)COC(=O)c1ccc(-c2cssc2=S)cc1)C[C@@H]3O[C@H]1C[C@H](N)[C@H](O)[C@H](C)O1.Cl | Active |
| C=CCSCC(NC(C)=O)C(=O)OCC(=O)[C@]1(O)Cc2c(O)c3c(c(O)c2[C@@H](O[C@H]2C[C@H](N)[C@H](O)[C@H](C)O2)C1)C(=O)c1c(OC)cccc1C3=O.Cl (stereo partly drawn) | Active |

Find the recorded Drug uptake belonging to `COc1cccc2c1C(=O)c1c(O)c3c(c(O)c1C2=O)C[C@@](O)(C(=O)COC(=O)c1csc(=S)s1)C[C@@H]3O[C@H]1C[C@H](N)[C@H](O)[C@H](C)O1.Cl` and report it.
Active

Find the recorded Drug uptake belonging to `COc1cccc2c1C(=O)c1c(O)c3c(c(O)c1C2=O)C[C@@](O)(C(=O)COC(=O)c1ccc(-c2ssc(=S)c2-c2ccccc2)cc1)C[C@@H]3O[C@H]1C[C@H](N)[C@H](O)[C@H](C)O1.Cl` and report it.
Active

Find the recorded Drug uptake belonging to `COc1cccc2c1C(=O)c1c(O)c3c(c(O)c1C2=O)C[C@@](O)(C(=O)COC(=O)COc1ccc(-c2cc(=S)ss2)cc1)C[C@@H]3O[C@H]1C[C@H](N)[C@H](O)[C@H](C)O1.Cl` and report it.
Active
